Recorded IC50 for the following compounds
target: Recombinant human PRMT5: MEP50 protein (Homo sapiens); construct: purchased active motif 31521; assay: Inhibitory activity against human PRMT5 enzymatic activity (HTRF quantification of SAH, +MTA); type: biochemical; settings: +1 µM MTA; histone H4 peptide substrate (1-21), SAM; 37°C 120 min
Sequence (O14744 whole entry): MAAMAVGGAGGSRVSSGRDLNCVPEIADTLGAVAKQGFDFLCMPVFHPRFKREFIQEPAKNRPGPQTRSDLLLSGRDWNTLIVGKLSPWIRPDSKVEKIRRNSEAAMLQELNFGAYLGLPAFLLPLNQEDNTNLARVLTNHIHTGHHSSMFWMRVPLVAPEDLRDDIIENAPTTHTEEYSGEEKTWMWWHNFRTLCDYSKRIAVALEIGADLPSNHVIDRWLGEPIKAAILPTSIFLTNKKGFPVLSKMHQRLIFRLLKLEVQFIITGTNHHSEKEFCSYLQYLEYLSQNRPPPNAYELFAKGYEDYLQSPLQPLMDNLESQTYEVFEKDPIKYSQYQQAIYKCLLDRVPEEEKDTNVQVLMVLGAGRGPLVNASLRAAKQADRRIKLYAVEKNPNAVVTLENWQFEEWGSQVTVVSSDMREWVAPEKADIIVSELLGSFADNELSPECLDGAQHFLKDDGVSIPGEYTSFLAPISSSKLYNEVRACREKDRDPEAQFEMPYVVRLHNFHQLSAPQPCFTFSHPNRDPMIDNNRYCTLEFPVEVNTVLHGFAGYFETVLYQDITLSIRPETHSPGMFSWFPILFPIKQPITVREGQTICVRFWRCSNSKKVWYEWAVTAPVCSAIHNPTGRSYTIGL
Sequence (Q9BQA1 whole entry partner): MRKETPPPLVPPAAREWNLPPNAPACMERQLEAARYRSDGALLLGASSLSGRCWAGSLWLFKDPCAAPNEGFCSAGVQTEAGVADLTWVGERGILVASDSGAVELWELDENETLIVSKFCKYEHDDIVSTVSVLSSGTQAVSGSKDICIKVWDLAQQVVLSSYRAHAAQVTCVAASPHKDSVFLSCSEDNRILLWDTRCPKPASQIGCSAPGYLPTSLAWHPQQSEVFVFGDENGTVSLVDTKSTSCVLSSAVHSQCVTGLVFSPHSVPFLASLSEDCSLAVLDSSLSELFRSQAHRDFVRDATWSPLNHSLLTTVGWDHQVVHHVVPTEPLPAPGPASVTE
Unit nM implied. Number only.

COMPOUND	IC50, nM
[2H]C([2H])([2H])n1ncc(-c2ccc3c(=O)[nH]nc(CN)c3c2)c1-c1c(F)cc2c(c1C#N)N1CCC[C@H]1CO2 (single isomer, unassigned) [Compound 8-p2]	3.86

Name the recorded IC50 for [2H]C([2H])([2H])n1ncc(-c2ccc3c(=O)[nH]nc(CN)c3c2)c1-c1c(F)c(Cl)c2c(c1C#N)N1CCC[C@H]1CO2 (atropisomer, axis not shown; (M)) [Compound 13-p1] .
2.8

Would you kindly share the measured IC50 for [2H]C([2H])([2H])n1ncc(-c2ccc3c(=O)[nH]nc(CN)c3c2)c1-c1c(F)cc2c(c1C#N)N1CCC[C@@H]1CO2 (single isomer, unassigned) [Compound 5-p2] ?
4.91

---

Here the recorded IC50 is given for each entry.
target: Recombinant human PRMT5: MEP50 protein (Homo sapiens); construct: purchased active motif 31521; assay: Inhibitory activity against human PRMT5 enzymatic activity (HTRF quantification of SAH, +MTA); assay type: biochemical; conditions: +1 µM MTA; histone H4 peptide substrate (1-21), SAM; 37°C 120 min
Answer with a number only, understood to be in nM.

Worked set:
COMPOUND	IC50, nM
[2H]C([2H])([2H])n1ncc(-c2ccc3c(=O)[nH]nc(CN)c3c2)c1-c1c(F)cc2c(c1C#N)O[C@H]1CC[C@H]1O2 (single isomer, unassigned) [Compound 2-p3]	5.31
[2H]C([2H])([2H])n1ncc(-c2ccc3c(=O)[nH]nc(CN)c3c2)c1-c1c(F)cc2c(c1C#N)O[C@@H]1CC[C@@H]1O2 (single isomer, unassigned) [Compound 2-p4]	5.87
Cn1ncc(-c2ccc3c(=O)[nH]nc(CN)c3c2)c1-c1c(F)cc2c(c1C#N)O[C@@H]1CC[C@@H]1O2 (atropisomer, axis not shown; (P)) [Compound 1-p4]	5.48
[2H]C([2H])([2H])n1ncc(-c2ccc3c(=O)[nH]nc(CN)c3c2)c1-c1c(F)cc2c(c1C#N)N1CCC[C@@H]1CO2 (single isomer, unassigned) [Compound 5-p1]	7.67

Please turn your attention to the following entry.
Recorded IC50 of [2H]C([2H])([2H])n1ncc(-c2ccc3c(=O)[nH]nc(CN)c3c2)c1-c1c(F)cc2c(c1C#N)OCC21CC1 [Compound 12] , please.
6.39

---

Reported pIC50 by item:
tested on: HCT116 cells; experiment: HCT116 cell proliferation assay (CellTiter-Glo, 10 days); format: cell-based; settings: Homo sapiens, HCT-116, 240 h, growth inhibition, CTG assay Day 10
In simple prose, pIC50 is minus the logarithm base ten of a concentration in moles per litre.

Below are worked cases with known answers.
MOLECULE	REPORTED RESULT
[2H]C([2H])([2H])n1ncc(-c2ccc3c(=O)[nH]nc(CN)c3c2)c1-c1c(F)cc2c(c1C#N)O[C@H]1CC[C@H]1O2 (single isomer, unassigned) [Compound 2-p1]	5.89
[2H]C([2H])([2H])n1ncc(-c2ccc3c(=O)[nH]nc(CN)c3c2)c1-c1c(F)cc2c(c1C#N)O[C@@H]1CC[C@@H]1O2 (single isomer, unassigned) [Compound 2-p2]	5.62
Cn1ncc(-c2ccc3c(=O)[nH]nc(CN)c3c2)c1-c1c(F)cc2c(c1C#N)O[C@H]1CC[C@H]1O2 (atropisomer, axis not shown; (M)) [Compound 1-p1]	5.84

Now consider the entry below.
Any idea what pIC50 came out for [2H]C([2H])([2H])n1ncc(-c2ccc3c(=O)[nH]nc(CN)c3c2)c1-c1c(F)cc2c(c1C#N)N1CCC[C@H]1CO2 (single isomer, unassigned) [Compound 8-p1] on HCT116 cells?
5.84

---

system: HCT116 cells; experiment: HCT116 cell proliferation assay (CellTiter-Glo, 10 days); assay type: cell-based; conditions: growth inhibition, CTG assay Day 10
REPORTED ENDPOINT: IC50 (µM)
Just the number in µM, nothing appended.

For Cn1ncc(-c2ccc3c(=O)[nH]nc(CN)c3c2)c1-c1c(F)cc2c(c1C#N)O[C@@H]1CC[C@@H]1O2 (atropisomer, axis not shown; (M)) [Compound 1-p2] , what is its reported IC50?
2.35

Hey, just so you know, these numbers are from patent EP4759817A1.
